FYI, the data here is from the supplement of paper PMC9942566.

system: Serratia marcescens K904 PosmB-luxCDABE reporter (pMQ747); experiment: PosmB-lux reporter fold induction (RLU/OD600 relative to no-compound control), highest over Biolog concentrations; higher = stronger Rcs reporter activation; settings: wild type K904; 4 h
MEASUREMENT TYPE: PosmB-lux reporter fold induction
Answers are plain numbers.

Study these solved cases before continuing.
| COMPOUND | ASSAYED TARGET | MEASUREMENT TYPE | ASSAY RESULT |
| --- | --- | --- | --- |
| O=C1CN(/N=C/c2ccc([N+](=O)[O-])o2)C(=O)N1 [Nitrofurantoin] (Biolog plate: PM14, well positions: E5-8) | Serratia marcescens K904 PosmB-luxCDABE reporter (pMQ747) | PosmB-lux reporter fold induction | 2.33 |
| C[C@H]1c2cccc(O)c2C(=O)C2=C(O)[C@]3(O)C(=O)C(C(N)=O)=C(O)[C@@H](N(C)C)[C@@H]3[C@@H](O)[C@@H]21 [Doxycycline] (Biolog plate: PM13, well positions: C5-8) | Serratia marcescens K904 PosmB-luxCDABE reporter (pMQ747) | PosmB-lux reporter fold induction | 1.48 |
| O=C(N[C@H](CO)[C@H](O)c1ccc([N+](=O)[O-])cc1)C(Cl)Cl [Chloramphenicol] (Biolog plate: PM14, well positions: F1-4) | Serratia marcescens K904 PosmB-luxCDABE reporter (pMQ747) | PosmB-lux reporter fold induction | 2.41 |
| CN1CCN(CCCN2c3ccccc3Sc3ccc(C(F)(F)F)cc32)CC1 [Trifluoperazine] (Biolog plate: PM13, well positions: G9-12) | Serratia marcescens K904 PosmB-luxCDABE reporter (pMQ747) | PosmB-lux reporter fold induction | 1.34 |

Exercise: Entry under review: CO[C@@]1(NC(=O)CSCC#N)C(=O)N2C(C(=O)O)=C(CSc3nnnn3C)CS[C@@H]21 [Cefmetazole] (Biolog plate: PM15, well positions: A9-12) . Reported PosmB-lux reporter fold induction?
Key: 1.21
